Ref: BigSolDB 2.1

details: in isobutanol, 288.15 K
propertyMeasured: solubility (mole fraction)

stdin: Query solubility (mole fraction) for CC(CCc1ccccc1)NCC(O)c1ccc(O)c(C(N)=O)c1.Cl (stereo unspecified)
stdout: 0.000136

----------
conditions: in n-propanol, 293.15 K
propertyMeasured: solubility (mole fraction)
Keep the answer to the number alone.

stdin: Query solubility (mole fraction) for CC(CCc1ccccc1)NCC(O)c1ccc(O)c(C(N)=O)c1.Cl (stereo unspecified)
stdout: 0.00058

----------
settings: in isopropanol, 298.15 K
propertyMeasured: solubility (mole fraction)
Keep the answer to the number alone.

stdin: Query solubility (mole fraction) for CC(CCc1ccccc1)NCC(O)c1ccc(O)c(C(N)=O)c1.Cl (stereo unspecified)
stdout: 0.000253

----------
details: in isobutanol, 293.15 K
propertyMeasured: solubility (mole fraction)
Keep the answer to the number alone.

stdin: Query solubility (mole fraction) for CC(CCc1ccccc1)NCC(O)c1ccc(O)c(C(N)=O)c1.Cl (stereo unspecified)
stdout: 0.000184

----------
details: in ethanol, 288.15 K
propertyMeasured: solubility (mole fraction)
Keep the answer to the number alone.

stdin: Query solubility (mole fraction) for CC(CCc1ccccc1)NCC(O)c1ccc(O)c(C(N)=O)c1.Cl (stereo unspecified)
stdout: 0.00124

----------
settings: in ethyl acetate, 328.15 K
propertyMeasured: solubility (mole fraction)
Keep the answer to the number alone.

stdin: Query solubility (mole fraction) for CC(CCc1ccccc1)NCC(O)c1ccc(O)c(C(N)=O)c1.Cl (stereo unspecified)
stdout: 0.00109

----------
conditions: in ethyl acetate, 313.15 K
propertyMeasured: solubility (mole fraction)
Keep the answer to the number alone.

stdin: Query solubility (mole fraction) for CC(CCc1ccccc1)NCC(O)c1ccc(O)c(C(N)=O)c1.Cl (stereo unspecified)
stdout: 0.000531

----------
conditions: in methanol, 288.15 K
propertyMeasured: solubility (mole fraction)
Keep the answer to the number alone.

stdin: Query solubility (mole fraction) for CC(CCc1ccccc1)NCC(O)c1ccc(O)c(C(N)=O)c1.Cl (stereo unspecified)
stdout: 0.00883

----------
conditions: in n-butanol, 288.15 K
propertyMeasured: solubility (mole fraction)
Keep the answer to the number alone.

stdin: Query solubility (mole fraction) for CC(CCc1ccccc1)NCC(O)c1ccc(O)c(C(N)=O)c1.Cl (stereo unspecified)
stdout: 0.000385

----------
conditions: in n-butanol, 293.15 K
propertyMeasured: solubility (mole fraction)

stdin: Query solubility (mole fraction) for CC(CCc1ccccc1)NCC(O)c1ccc(O)c(C(N)=O)c1.Cl (stereo unspecified)
stdout: 0.000467

----------
conditions: in isobutanol, 313.15 K
propertyMeasured: solubility (mole fraction)
Keep the answer to the number alone.

stdin: Query solubility (mole fraction) for CC(CCc1ccccc1)NCC(O)c1ccc(O)c(C(N)=O)c1.Cl (stereo unspecified)
stdout: 0.00056

----------
conditions: in isopropanol, 323.15 K
propertyMeasured: solubility (mole fraction)
Keep the answer to the number alone.

stdin: Query solubility (mole fraction) for CC(CCc1ccccc1)NCC(O)c1ccc(O)c(C(N)=O)c1.Cl (stereo unspecified)
stdout: 0.0014

----------
settings: in methanol, 318.15 K
propertyMeasured: solubility (mole fraction)

stdin: Query solubility (mole fraction) for CC(CCc1ccccc1)NCC(O)c1ccc(O)c(C(N)=O)c1.Cl (stereo unspecified)
stdout: 0.0182

----------
settings: in n-butanol, 298.15 K
propertyMeasured: solubility (mole fraction)
Keep the answer to the number alone.

stdin: Query solubility (mole fraction) for CC(CCc1ccccc1)NCC(O)c1ccc(O)c(C(N)=O)c1.Cl (stereo unspecified)
stdout: 0.000565
